# log10(IC50) values compiled below
Tested on: Wnt activity (Wnt-responsive Sp5 promoter-luciferase reporter in SW480 cells)
assay overview: Wnt activity screening assay: Sp5-Luc reporter gene in SW480 colon carcinoma cells
Format: cell-based
conditions: Homo sapiens
measured attribute: log10(IC50) (log10 of the value in nM)

- compound: "Cn1cc(-c2cc3c(-c4nc5c(-c6cccc(F)c6)cncc5[nH]4)n[nH]c3cn2)cn1 [Compound 888]"
  measured attribute: "log10(IC50)"
  endpoint value: 1.85
- compound: "CN1CCN(c2cncc3[nH]c(-c4n[nH]c5cnc(-c6cncnc6)cc45)nc23)CC1 [Compound 234]"
  measured attribute: "log10(IC50)"
  endpoint value: 2.58
- compound: "Fc1cccc(-c2cncc3[nH]c(-c4n[nH]c5cnc(-c6ccccn6)cc45)nc23)c1 [Compound 901]"
  measured attribute: "log10(IC50)"
  endpoint value: 2.91
- compound: "Cc1ccc(-c2cncc3[nH]c(-c4n[nH]c5cnc(-c6cncc(NC(=O)C7CCCC7)c6)cc45)nc23)s1 [Compound 359]"
  measured attribute: "log10(IC50)"
  endpoint value: 1.53
- compound: "CC(C)CC(=O)Nc1cncc(-c2cc3c(-c4nc5c(-c6cccs6)cncc5[nH]4)n[nH]c3cn2)c1 [Compound 288]"
  measured attribute: "log10(IC50)"
  endpoint value: 1.90
- compound: "CN(C)c1cncc(-c2cc3c(-c4nc5c(N6CCCCC6)cncc5[nH]4)n[nH]c3cn2)c1 [Compound 163]"
  measured attribute: "log10(IC50)"
  endpoint value: 2.49
